Entries and their MIC
- System: Proteus morganii EP-14
parameter: MIC (µg/mL)

- chemical-structure: "O=C(O)COc1ccc([C@@H](NC(=O)c2coc3cc(O)c(O)cc3c2=O)C(=O)N[C@@H]2C(=O)N3C(C(=O)[O-])=C(C[n+]4ccc(CCS(=O)(=O)O)cc4)CS[C@H]23)cc1"
  measured: 25
- chemical-structure: "CC(=O)Oc1cc2oc(C)c(C(=O)N[C@@H](C(=O)N[C@@H]3C(=O)N4C(C(=O)O)=C(CSc5nnnn5CC(=O)O)CS[C@H]34)c3ccc(OCC(=O)O)cc3)c(=O)c2cc1OC(C)=O"
  measured: 3.13
- chemical-structure: "Cn1nnnc1SCC1=C(C(=O)O)N2C(=O)[C@@H](NC(=O)[C@H](NC(=O)c3coc4cc(O)c(O)cc4c3=O)c3ccc(OCC(=O)O)cc3)[C@H]2SC1"
  measured: 0.8
- chemical-structure: "CCn1cc(C(=O)N[C@@H](C(=O)N[C@@H]2C(=O)N3C(C(=O)O)=C(COC(C)=O)CS[C@H]23)c2ccc(OCC(=O)O)cc2)c(=O)c2cc(O)c(O)cc21"
  measured: 12.5
- chemical-structure: "CO[C@@]1(NC(=O)[C@H](NC(=O)c2c(C)oc3c(OC(C)=O)c(OC(C)=O)ccc3c2=O)c2ccc(OCC(=O)O)cc2)C(=O)N2C(C(=O)O)=C(CSc3nnnn3CC(=O)O)CS[C@@H]21"
  measured: 12.5
- chemical-structure: "Cc1oc2cc(O)c(O)cc2c(=O)c1C(=O)N[C@@H](C(=O)N[C@@H]1C(=O)N2C(C(=O)[O-])=C(C[n+]3ccc(CCS(=O)(=O)O)cc3)CS[C@H]12)c1ccc(OCC(=O)O)cc1"
  measured: 3.13
- chemical-structure: "Cn1nnnc1SCC1=C(C(=O)O)N2C(=O)[C@@H](NC(=O)[C@H](NC(=O)c3cc4ccc(O)c(O)c4oc3=O)c3ccc(OCC(=O)O)cc3)[C@H]2SC1"
  measured: 3.13
- chemical-structure: "Cc1oc2cc(O)c(O)cc2c(=O)c1C(=O)N[C@@H](C(=O)N[C@@H]1C(=O)N2C(C(=O)[O-])=C(C[n+]3cccc(CC(=O)O)c3)CS[C@H]12)c1ccc(OCC(=O)O)cc1"
  measured: 12.5
- chemical-structure: "CC(=O)OCC1=C(C(=O)O)N2C(=O)[C@@H](NC(=O)[C@H](NC(=O)c3coc4cc(O)c(O)cc4c3=O)c3ccc(OCC(=O)O)cc3)[C@H]2SC1"
  measured: 6.25
- chemical-structure: "Cc1oc2cc(O)c(O)cc2c(=O)c1C(=O)N[C@@H](C(=O)N[C@@H]1C(=O)N2C(C(=O)[O-])=C(C[n+]3ccc(C(N)=O)cc3)CS[C@H]12)c1ccc(OCC(=O)O)cc1"
  measured: 6.25

----------
- method-description: Urinary excretion rate in mice
- Assay type: in vivo, ICR male mice
- condition-notes: mouse, sc, 20 mg/kg subcutaneous, urine up to 6 hours, bioassay
Entries and their dose excreted at 6 h

- molecule: "O=C(O)COc1ccc([C@@H](NC(=O)c2coc3cc(O)c(O)cc3c2=O)C(=O)N[C@@H]2C(=O)N3C(C(=O)[O-])=C(C[n+]4ccc(CCS(=O)(=O)O)cc4)CS[C@H]23)cc1 [Example 46]"
  dose excreted at 6 h [%]: 62
- molecule: "CO[C@@]1(NC(=O)[C@H](NC(=O)c2c(C)oc3cc(O)c(O)cc3c2=O)c2ccc(OCC(=O)O)cc2)C(=O)N2C(C(=O)O)=C(CSc3nnnn3CC(=O)O)CS[C@@H]21 [Example 25]"
  dose excreted at 6 h [%]: 20
- molecule: "Cc1oc2c(O)c(O)ccc2c(=O)c1C(=O)N[C@@H](C(=O)N[C@@H]1C(=O)N2C(C(=O)O)=C(CSc3nnnn3CC(=O)O)CS[C@H]12)c1ccc(OCC(=O)O)cc1 [Example 27]"
  dose excreted at 6 h [%]: 30
- molecule: "Cc1oc2cc(O)c(O)cc2c(=O)c1C(=O)N[C@@H](C(=O)N[C@@H]1C(=O)N2C(C(=O)[O-])=C(C[n+]3ccc(C(N)=O)cc3)CS[C@H]12)c1ccc(OCC(=O)O)cc1 [Example 41]"
  dose excreted at 6 h [%]: 74
- molecule: "Cc1oc2cc(O)c(O)cc2c(=O)c1C(=O)N[C@@H](C(=O)N[C@@H]1C(=O)N2C(C(=O)[O-])=C(C[n+]3ccc(CCS(=O)(=O)O)cc3)CS[C@H]12)c1ccc(OCC(=O)O)cc1 [Example 42]"
  dose excreted at 6 h [%]: 46

----------
MIC values recorded for Escher. coli NIHJ

- molecule: "CC(=O)OCC1=C(C(=O)O)N2C(=O)[C@@H](NC(=O)[C@H](NC(=O)c3c(C)oc4cc(O)c(O)cc4c3=O)c3ccc(OCC(=O)O)cc3)[C@H]2SC1 [Example 29]"
  units-label: "µg/mL"
  MIC: 0.4
- molecule: "Cn1nnnc1SCC1=C(C(=O)O)N2C(=O)[C@@H](NC(=O)[C@H](NC(=O)c3cc4ccc(O)c(O)c4oc3=O)c3ccc(OCC(=O)O)cc3)[C@H]2SC1 [Example 10]"
  units-label: "µg/mL"
  MIC: 0.4
- molecule: "Cc1oc2cc(O)c(O)cc2c(=O)c1C(=O)N[C@@H](C(=O)N[C@@H]1C(=O)N2C(C(=O)[O-])=C(C[n+]3cccc(CC(=O)O)c3)CS[C@H]12)c1ccc(OCC(=O)O)cc1 [Example 43]"
  units-label: "µg/mL"
  MIC: 0.8
- molecule: "CC(=O)OCC1=C(C(=O)O)N2C(=O)[C@@H](NC(=O)[C@H](NC(=O)c3coc4cc(O)c(O)cc4c3=O)c3ccc(OCC(=O)O)cc3)[C@H]2SC1 [Example 1]"
  units-label: "µg/mL"
  MIC: 0.2
- molecule: "CO[C@@]1(NC(=O)[C@H](NC(=O)c2c(C)oc3c(OC(C)=O)c(OC(C)=O)ccc3c2=O)c2ccc(OCC(=O)O)cc2)C(=O)N2C(C(=O)O)=C(CSc3nnnn3CC(=O)O)CS[C@@H]21 [Example 24]"
  units-label: "µg/mL"
  MIC: 0.8
- molecule: "CN(C)CCn1nnnc1SCC1=C(C(=O)O)N2C(=O)[C@@H](NC(=O)[C@H](NC(=O)c3coc4cc(O)c(O)cc4c3=O)c3ccc(OCC(=O)O)cc3)[C@H]2SC1 [Example 14]"
  units-label: "µg/mL"
  MIC: 0.4
- molecule: "CO[C@@]1(NC(=O)[C@H](NC(=O)c2coc3cc(O)c(O)cc3c2=O)c2ccc(OCC(=O)O)cc2)C(=O)N2C(C(=O)[O-])=C(C[n+]3ccc(C(N)=O)cc3)CS[C@@H]21 [Example 51]"
  units-label: "µg/mL"
  MIC: 1.56
- molecule: "CO[C@@]1(NC(=O)[C@H](NC(=O)c2c(C)oc3cc(O)c(O)cc3c2=O)c2ccc(OCC(=O)O)cc2)C(=O)N2C(C(=O)O)=C(CSc3nnnn3CC(=O)O)CS[C@@H]21 [Example 25]"
  units-label: "µg/mL"
  MIC: 0.4
- molecule: "CCn1cc(C(=O)NC(C(=O)NC2C(=O)N3C(C(=O)O)=C(CSc4nnnn4C)CSC23)c2ccc(OCC(=O)O)cc2)c(=O)c2cc(OC(C)=O)c(OC(C)=O)cc21 (centres unmarked) [Example 11]"
  units-label: "µg/mL"
  MIC: 0.2
- molecule: "Cc1oc2cc(O)c(O)cc2c(=O)c1C(=O)N[C@@H](C(=O)N[C@@H]1C(=O)N2C(C(=O)[O-])=C(C[n+]3ccccc3)CS[C@H]12)c1ccc(OCC(=O)O)cc1 [Example 40]"
  units-label: "µg/mL"
  MIC: 0.8
- molecule: "Cn1nnnc1SCC1=C(C(=O)O)N2C(=O)[C@@H](NC(=O)[C@H](NC(=O)c3coc4c(O)c(O)ccc4c3=O)c3ccc(OCC(=O)O)cc3)[C@H]2SC1 [Example 9]"
  units-label: "µg/mL"
  MIC: 0.4
- molecule: "Cc1oc2cc(O)c(O)cc2c(=O)c1C(=O)N[C@@H](C(=O)N[C@@H]1C(=O)N2C(C(=O)[O-])=C(C[n+]3ccc(CCS(=O)(=O)O)cc3)CS[C@H]12)c1ccc(OCC(=O)O)cc1 [Example 42]"
  units-label: "µg/mL"
  MIC: 0.2
- molecule: "CO[C@@]1(NC(=O)[C@H](NC(=O)c2c(C)oc3cc(O)c(O)cc3c2=O)c2ccc(OCC(=O)O)cc2)C(=O)N2C(C(=O)O)=C(COC(C)=O)CS[C@@H]21 [Example 33]"
  units-label: "µg/mL"
  MIC: 0.8
- molecule: "Cc1oc2cc(O)c(O)cc2c(=O)c1C(=O)N[C@@H](C(=O)N[C@@H]1C(=O)N2C(C(=O)[O-])=C(C[n+]3ccc(C(N)=O)cc3)CS[C@H]12)c1ccc(OCC(=O)O)cc1 [Example 41]"
  units-label: "µg/mL"
  MIC: 0.4
- molecule: "CO[C@@]1(NC(=O)[C@H](NC(=O)c2c(C)oc3cc(O)c(O)cc3c2=O)c2ccc(OCC(=O)O)cc2)C(=O)N2C(C(=O)[O-])=C(C[n+]3ccc(C(N)=O)cc3)CS[C@@H]21 [Example 50]"
  units-label: "µg/mL"
  MIC: 1.56
- molecule: "O=C(O)COc1ccc([C@@H](NC(=O)c2coc3cc(O)c(O)cc3c2=O)C(=O)N[C@@H]2C(=O)N3C(C(=O)O)=C(CSc4nnnn4CC(=O)O)CS[C@H]23)cc1 [Example 8]"
  units-label: "µg/mL"
  MIC: 0.8
- molecule: "Cc1oc2cc(O)c(O)cc2c(=O)c1C(=O)N[C@@H](C(=O)N[C@@H]1C(=O)N2C(C(=O)O)=C(CSc3nnnn3CC(=O)O)CS[C@H]12)c1ccc(OCC(=O)O)cc1 [Example 15]"
  units-label: "µg/mL"
  MIC: 0.2
- molecule: "CC(=O)Oc1cc2oc(C)c(C(=O)N[C@@H](C(=O)N[C@@H]3C(=O)N4C(C(=O)[O-])=C(C[n+]5ccc(C(N)=O)cc5)CS[C@H]34)c3ccc(OCC(=O)O)cc3)c(=O)c2cc1OC(C)=O [Example 56]"
  units-label: "µg/mL"
  MIC: 0.8
- molecule: "O=C(O)COc1ccc([C@@H](NC(=O)c2coc3cc(O)c(O)cc3c2=O)C(=O)N[C@@H]2C(=O)N3C(C(=O)[O-])=C(C[n+]4ccc(CCS(=O)(=O)O)cc4)CS[C@H]23)cc1 [Example 46]"
  units-label: "µg/mL"
  MIC: 0.4
- molecule: "CCOC(=O)Oc1cc2oc(C)c(C(=O)N[C@@H](C(=O)N[C@@H]3C(=O)N4C(C(=O)O)=C(COC(C)=O)CS[C@H]34)c3ccc(OCC(=O)O)cc3)c(=O)c2cc1OC(=O)OCC [Example 36]"
  units-label: "µg/mL"
  MIC: 0.8
